Consider the following variants; for each one, report its reverse-splicing fitness.
B1: Azoarcus group I ribozyme (parent)
chain: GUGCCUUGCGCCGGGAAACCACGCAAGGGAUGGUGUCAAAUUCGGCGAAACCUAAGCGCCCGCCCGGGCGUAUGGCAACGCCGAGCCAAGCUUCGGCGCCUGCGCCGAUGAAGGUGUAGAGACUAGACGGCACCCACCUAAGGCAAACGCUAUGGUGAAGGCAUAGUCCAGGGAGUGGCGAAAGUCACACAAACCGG

- Variants of: B1
- PROTOCOL: reverse-splicing fitness (ratio to wild type); higher = more active; in vitro selection; Mg2+ level not given
Numbers only.

>  <VARIANT_ANNOTATION>
A111U A145C C150U C169A

>  <reverse-splicing fitness>
0.0113

$$$$

Batch lookup, reverse-splicing fitness per entry.
1. C82G A111C A145G C150U C169G
2. C82A A111G A120U U176C
3. A145G C150U

Response:
0.00884
0.0161
0.93
